Tested on: RS4; 11
Assay Name: Cell viability assay (CELLCOUNTING-LITE)
Format: cell-based
Condition Summary: Homo sapiens; RS4; 11 cells; incubated for 4 or 5 days; Table 1; read-out: IC50
Readout Name: pIC50
pIC50 is defined as minus the log10 of a concentration measured in mol/L.

[Q] pIC50 lookup needed for CC[C@@]1(O)C(=O)OCc2c1cc1n(c2=O)Cc2c-1nc1cc(F)c(C)cc1c2C=NOCCCNC(=O)CO [Compound B2] , thanks.
[A] 9.06

====

System: HT29
Assay Name: Cell viability assay (CELLCOUNTING-LITE)
Assay type: cell-based
Condition Summary: Homo sapiens, HT-29; HT29 cells; incubated for 4 or 5 days; Table 1; read-out: IC50
Readout Name: pIC50
Please keep in mind that pIC50 is minus log10 of the molar concentration; only the number is needed.

[Q] Consider the compound `CC[C@@]1(O)C(=O)OCc2c1cc1n(c2=O)Cc2c-1nc1cc(F)c(C)cc1c2C=NOCCCNC(=O)CO` and give its measured pIC50.
[A] 7.80

Where these numbers come from: patent US20240066138A1
